# System: Ba/F3 Parental
# ASSAY_OVERVIEW: Ba/F3 viability assay (CellTiter-Glo), parental
# Assay type: cell-based
# CONDITION: Mus musculus, BaF3, anti-proliferation
METRIC_NAME: IC50

COMPOUND: C[C@H]1CCOc2c(cnn2C)-c2nccc(n2)Nc2cc3c(cn2)c(-c2cccc(N4CCC(O)CC4)c2)nn31 [(111)]
MEASURED_TARGET: Ba/F3 Parental
METRIC_NAME: IC50
ENDPOINT_VALUE: 100 to 1000 nM

Request: Requested read-out: IC50. Entry: C[C@H]1CCOc2c(cnn2C)-c2nccc(n2)Nc2cc3c(cn2)c(-c2ccc(CN4CC[C@H](N(C)C)C4)n2C)nn31 [(187)]
Result: 100 to 1000 nM
